target: human VR1 receptors (Homo sapiens, UniProt Q8NER1); experiment: Human VR1 antagonist assay (Ca2+ imaging); settings: Ca2+ imaging (fura-2/AM) in cells highly expressing human VR1; agonist stimulation
Sequence (Q8NER1 whole entry): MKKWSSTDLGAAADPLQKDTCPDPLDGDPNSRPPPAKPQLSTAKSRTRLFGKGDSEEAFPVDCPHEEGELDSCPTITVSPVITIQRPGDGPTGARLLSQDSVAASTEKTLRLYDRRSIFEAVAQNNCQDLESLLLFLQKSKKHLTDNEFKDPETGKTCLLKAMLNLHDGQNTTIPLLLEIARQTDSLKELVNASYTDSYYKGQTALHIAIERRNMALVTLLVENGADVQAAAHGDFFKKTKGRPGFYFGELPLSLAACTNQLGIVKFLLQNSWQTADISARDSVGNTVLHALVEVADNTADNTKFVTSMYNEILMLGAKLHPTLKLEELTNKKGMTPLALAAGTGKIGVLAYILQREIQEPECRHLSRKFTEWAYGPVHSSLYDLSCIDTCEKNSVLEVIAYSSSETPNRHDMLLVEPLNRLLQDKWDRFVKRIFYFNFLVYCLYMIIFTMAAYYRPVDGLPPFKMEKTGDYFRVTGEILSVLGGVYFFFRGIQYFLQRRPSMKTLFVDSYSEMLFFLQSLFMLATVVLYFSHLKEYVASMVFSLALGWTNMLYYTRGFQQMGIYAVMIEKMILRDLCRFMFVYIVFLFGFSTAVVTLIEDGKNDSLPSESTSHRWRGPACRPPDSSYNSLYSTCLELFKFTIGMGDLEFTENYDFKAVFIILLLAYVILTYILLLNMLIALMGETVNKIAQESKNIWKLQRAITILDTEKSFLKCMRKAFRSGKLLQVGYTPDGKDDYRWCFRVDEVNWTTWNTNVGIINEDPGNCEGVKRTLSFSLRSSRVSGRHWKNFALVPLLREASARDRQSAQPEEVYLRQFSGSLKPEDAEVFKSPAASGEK
Assign pIC50 to each entry below.
Numbers only, as −log10 of the molar value.

See these solved cases before continuing.
{"COMPOUND": "Cc1ccc(CNC(=O)c2ccc3cc(C(C)(C)C)ccc3c2)cn1 [Example A1]", "pIC50": 6.60}
{"COMPOUND": "C[C@@H](NC(=O)c1ccc2cc(C(C)(C)C)ccc2c1)c1ccc(CO)nc1 [Example A5]", "pIC50": 6.90}
{"COMPOUND": "C[C@@H](NC(=O)c1ccc2cc(C(C)(C)C)ccc2c1)c1ccncc1 [Example C1]", "pIC50": 6.35}

Now take the following compound into account.
What value of pIC50 has been recorded for this entry: Cc1cc(CNC(=O)c2ccc3cc(C(C)(C)C)ccc3n2)c(C)cn1 [Example D2] 7.07
